- assay_protocol: Metabolic stability in human liver microsomes assessed as compound remaining after 30 mins
- Assay type: ADME, Microsome
- study_conditions: read-out: Stability
parameter_measured: remaining at 0.5 h (%)

compound_structure	units_label	readout_value
CCC[C@@H](CCO)Nc1nc(N)nc2c3ccccc3n(Cc3cc(CNC[C@@H]4CCOC4)ccc3OC)c12	%	4

Provenance of the data: ChEMBL document CHEMBL6153060
